Reference source: patent US7576112B2

TESTED SYSTEM: EP4 (Homo sapiens, UniProt P35408)
Sequence (P35408 whole entry): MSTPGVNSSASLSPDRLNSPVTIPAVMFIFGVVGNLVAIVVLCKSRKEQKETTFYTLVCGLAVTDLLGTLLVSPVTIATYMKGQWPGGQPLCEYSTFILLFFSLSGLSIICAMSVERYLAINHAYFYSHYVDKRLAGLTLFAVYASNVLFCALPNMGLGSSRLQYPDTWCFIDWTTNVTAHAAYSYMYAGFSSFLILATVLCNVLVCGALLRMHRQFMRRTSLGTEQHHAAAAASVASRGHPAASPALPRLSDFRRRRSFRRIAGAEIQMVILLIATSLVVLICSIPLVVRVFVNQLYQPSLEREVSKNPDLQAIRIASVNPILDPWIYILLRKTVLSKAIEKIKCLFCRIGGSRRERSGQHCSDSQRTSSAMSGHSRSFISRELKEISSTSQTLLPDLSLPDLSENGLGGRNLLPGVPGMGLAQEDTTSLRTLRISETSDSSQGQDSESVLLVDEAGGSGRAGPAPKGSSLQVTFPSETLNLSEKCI
pKi: −log10 of the molar value.
OBSERVABLE: pKi

INPUT: What pKi value was documented for this compound, CCCCC[C@H](O)c1ccc(N2C(=O)CCN2CCCc2ccc(C(=O)O)s2)cc1 (stereo in doubt) ?
OUTPUT: < 5.00

* * *

TESTED SYSTEM: EP2 (Homo sapiens, UniProt P43116)
Sequence (P43116 whole entry): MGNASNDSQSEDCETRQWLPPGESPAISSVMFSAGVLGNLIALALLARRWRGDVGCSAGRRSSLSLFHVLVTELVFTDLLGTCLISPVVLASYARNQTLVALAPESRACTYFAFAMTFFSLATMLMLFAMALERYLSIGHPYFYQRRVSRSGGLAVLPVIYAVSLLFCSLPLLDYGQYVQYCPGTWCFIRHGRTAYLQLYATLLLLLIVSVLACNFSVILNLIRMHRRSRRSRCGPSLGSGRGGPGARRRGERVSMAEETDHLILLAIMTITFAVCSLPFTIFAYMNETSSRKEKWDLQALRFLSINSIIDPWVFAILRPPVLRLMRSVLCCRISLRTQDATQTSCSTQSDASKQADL
OBSERVABLE: pKi
Remember the convention: pKi equals -log10 of concentration in molar.

INPUT: What pKi value was documented for this molecule, CCCCC[C@H](O)c1ccc(N2C(=O)CCN2CCCc2ccc(C(=O)O)s2)cc1 (stereo in doubt) ?
OUTPUT: 6.60
